Tested on: Venturia inaequalis
Assay: Venturia Test (Apple)/protective
Format: in vivo
Details: 240 h, read-out: Efficacy in %
Please go through the items and note down their pest or weed control at 100 g/ha.
A complete answer gives the number and then names the unit.

Query block: Give the measured pest or weed control at 100 g/ha for `CC1=C(C(=O)Nc2ccccc2-c2ccc(Cl)c(C)c2)SCCO1`
Result block: 100%

Query block: Query pest or weed control at 100 g/ha for `CC1=C(C(=O)Nc2ccccc2-c2ccc(Cl)cc2C)SCCO1`
Result block: 99%

Query block: Answer with reported pest or weed control at 100 g/ha of `CC1=C(C(=O)Nc2c(F)cccc2-c2ccc(Cl)c(Cl)c2)SCCO1`
Result block: 100%

Query block: Quote pest or weed control at 100 g/ha reported for `CC1=C(C(=O)Nc2ccccc2-c2ccc(F)c(Cl)c2)SCCO1` please.
Result block: 100%

Query block: Specify pest or weed control at 100 g/ha for `CC1=C(C(=O)Nc2ccccc2-c2ccc(Cl)cc2)SCCO1` and stop.
Result block: 93%
